- assayedTarget: DRα1mMOG-35-55
- methodDescription: Competition ELISA: peptides competing with rmCD74 for binding to plate-coated DRα1mMOG-35-55
- testConditions: FIGS. 4A and 4B; peptides combined or alone; read-out: IC50 for blocking rmCD74 binding to DRα1mMOG-35-55
Ends that are not written are not given here.
Each entry below lists one item and its recorded IC50 value.
State just the number; it will be interpreted in µM.

KGSFPENLRHLKNTMET [α-helix 2] : 24.5

Now look at this one.
Problem: Fill in the blank: the reported IC50 of TEDHVMHLLQNAD [α-helix 1] is ____.
Solution: 35

Hello, the source for this data is patent US10525101B2, in case you need it.
